# Experiment notes: NCI Yeast Anticancer Drug Screen. Data for the rad50 strain (AID 155);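 further: 0% = growth of vehicle-only cultures of the same strain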
# Applied conditions: S. cerevisiae rad50 strain growth inhibition; at 50.0 µM; stronger effect = higher value
The panel holds about 79,000 compounds, 15% with a hit somewhere; the sample as a whole holds those more often.
Quantity kind: growth inhibition (%)

{"columns": ["Compound", "Data value"],
 "data": [
  ["COc1cc(C=NCc2ccccc2)cc(OC)c1O", -1.05],
  ["O=c1ncccn1C1OC(CO)C(O)C1F (centres undefined)", 4.75],
  ["COc1ccc(CCCNC(=O)Cc2ccccc2CO)cc1OC", 21.6],
  ["O=CCCc1ccccc1", 31.6],
  ["CC(=O)OCC1OC(n2cc(C)c(=O)[nH]c2=O)C(NC(=O)C(Cl)(Cl)Cl)C(OC(C)=O)C1OC(C)=O (centres undefined)", 6.3],
  ["O=[N+]([O-])c1ccc(OC2OC(CO)C(O)C(O)C2O)cc1 (centres undefined)", 31.2],
  ["COC(=O)CNC(=O)C1CSC(C)(C)N1 (centres undefined)", -5.9],
  ["O=[N+]([O-])c1ccccc1S(=O)(=O)N1CCCc2cc(Cl)ccc21", -3],
  ["CC1(C2=CCCCC2)CCC(=O)NC1=O (centres undefined)", -6.35],
  ["CC1=C2CCCCC2(C)C=C(C(=O)O)C1=O (centres undefined)", 22.2],
  ["c1ccc2c[n+](CCCC[n+]3ccc4ccccc4c3)ccc2c1", 46.5],
  ["O=[N+]([O-])c1cc2c3ccccc3ccc2c2ccccc12", -5.6],
  ["ClCc1nn(-c2ccccc2)c(CCl)c1CCl", 46.6],
  ["Cc1cc2c(C)nn(Cc3ccccc3)c2c(C(=O)O)c1C", 10.6],
  ["CCOC(=O)C(=[N+]=[N-])C(=O)c1cc2ccccc2oc1=O", -19.2],
  ["CCN(CC)c1ccc(/C=N\\NC(=O)CCCC(=O)N/N=C/c2ccc(N(CC)CC)cc2)cc1", -27.6],
  ["Cc1ccc(NC(=O)Oc2cccc(C(F)(F)F)c2)cc1", -8.55],
  ["O=C(C(CO)c1ccccc1)N1CCOCC1 (centres undefined)", -10.3],
  ["CCOC(=O)c1c[nH]c2cc(Cl)cc(OC)c2c1=O", -11.3],
  ["CN(Cc1ccccc1)C(=O)/C=C/c1ccccc1", 9.8],
  ["COc1cccc2c1oc(=O)c1ccccc12", 9.55],
  ["CNCc1cccs1", -26.8],
  ["CCOC(=O)C(NC(=O)CC)(Nc1ccccc1OC)C(F)(F)F (centres undefined)", -40.9],
  ["Clc1ccccc1-n1cccc1/C=N\\N=C/c1cccn1-c1ccccc1Cl", 0.15],
  ["CC#CCCC1CCCCNC1=O (centres undefined)", 0.8],
  ["Cc1nc(-c2ccccc2)[nH]c(=O)c1Cc1cc2c(cc1O)OCC2", 21.8],
  ["OCC1=CC(c2ccccc2)(c2ccccc2)c2ccccc21", 95.2],
  ["Cc1c(Cl)ccc2c1NC(=O)C2(O)CC(=O)c1ccccc1 (centres undefined)", 10.1],
  ["CC(=S)NC(O)C(=O)c1ccccc1 (centres undefined)", 9.85]
]}
